- Experiment: Solution Degradation Studies measured by compound unchanged at pH 6.4 = 50% water / 50% acetonitrile at 0 hours
- Assay type: ADME
- Condition Parameters: 50% water / 50% acetonitrile solution, read-out: Unchanged
A collection of molecules and their measured remaining at 0 h
Report the figure in % without appending any unit label.

{"Substance Smiles": "CC(C)c1cccc(C(C)C)c1OS(=O)(=O)NC(=O)Oc1c(C(C)(C)C)cccc1C(C)(C)C", "Assay Endpoint": "remaining at 0 h", "Result Unit": "%", "Measured Value": 100}

Just so you know, measured remaining at 0 h for Cc1cccc(C)c1OC(=O)NS(=O)(=O)Oc1c(C(C)C)cccc1C(C)C came out at 94

---

- Experiment: Solution Degradation Studies measured by compound unchanged at pH 6.4 = 50% water / 50% acetonitrile at 2 hours
- Format: ADME
- Condition Parameters: 50% water / 50% acetonitrile solution, read-out: Unchanged
Assay Endpoint: remaining at 2 h (%)
Lab book: enter the figure in %, no units written.

{"Substance Smiles": "CC(C)c1cccc(C(C)C)c1OS(=O)(=O)NC(=O)Oc1c(C(C)(C)C)cccc1C(C)(C)C", "Measured Value": 100}

# input for lookup
// remaining at 2 h value for Cc1cccc(C)c1OC(=O)NS(=O)(=O)Oc1c(C(C)C)cccc1C(C)C : 79

---

- Experiment: Solution Degradation Studies measured by compound unchanged at pH 6.4 = 50% water / 50% acetonitrile at 4 hours
- Format: ADME
- Condition Parameters: 50% water / 50% acetonitrile solution, read-out: Unchanged
Each entry below carries its recorded remaining at 4 h.
Report the figure in % without appending any unit label.

{"Substance Smiles": "Cc1cccc(C)c1OC(=O)NS(=O)(=O)Oc1c(C(C)C)cccc1C(C)C", "remaining at 4 h (%)": 65}

Consider the record given below.
Looking up CC(C)c1cccc(C(C)C)c1OS(=O)(=O)NC(=O)Oc1c(C(C)(C)C)cccc1C(C)(C)C , I found its remaining at 4 h recorded as 99

---

- Experiment: Solution Degradation Studies measured by compound unchanged at pH 0.4=50%1 M HCl/50% acetonitrile at 24 hours
- Assay type: ADME
- Condition Parameters: 50% 1 M HCl / 50% acetonitrile solution, read-out: Unchanged
Assay Endpoint: remaining at 24 h (%)
Your answer should be a plain number; it is taken to be in %.

For reference, reported remaining at 24 h for CC(C)c1cccc(C(C)C)c1OC(=O)NS(=O)(=O)Oc1c(C(C)C)cccc1C(C)C stands at 25

---

- Experiment: Solution Degradation Studies measured by compound unchanged at pH 0.4=50%1 M HCl/50% acetonitrile at 4 hours
- Type: ADME
- Condition Parameters: 50% 1 M HCl / 50% acetonitrile solution, read-out: Unchanged
Assay Endpoint: remaining at 4 h (%)
Value expressed in %; do not type the unit.

Quick note, remaining at 4 h for CC(C)c1cccc(C(C)C)c1OC(=O)NS(=O)(=O)Oc1c(C(C)C)cccc1C(C)C landed at 83

---

- Experiment: Solution Degradation Studies measured by compound unchanged at pH 0.4=50%1 M HCl/50% acetonitrile at 0 hours
- Format: ADME
- Condition Parameters: 50% 1 M HCl / 50% acetonitrile solution, read-out: Unchanged
Assay Endpoint: remaining at 0 h (%)
Note: unit % is implicit; provide only the numeric part.

Per the records, this compound ( CC(C)c1cccc(C(C)C)c1OC(=O)NS(=O)(=O)Oc1c(C(C)C)cccc1C(C)C ) has remaining at 0 h equal to 100
